# System: ACHN
# MEASUREMENT_PROTOCOL: NCI tumour cell line growth inhibition, 48 h
Activity calls are given as the source filed them. Rule as the data show it: active = GI50 up to about 1.1 µM and inactive = higher.
Choose one outcome from this list and give only that: yes (1) for active, no (0) for inactive

Reference set (3 entries):
1) CC(=O)OCC12C(OC(C)=O)C[C@@H](C)C3(CC(c4ccoc4)OC3=O)C1CCC(OC(C)=O)C21CO1 (some centres undefined) = no (0)
2) C[C@H]1S[C@H](c2c(F)cccc2F)n2c1nc1ccccc12 = no (0)
3) N=C(N)N/N=C\c1c(-c2cccc([N+](=O)[O-])c2)nc2sccn12 = no (0)

For this compound, state the assay outcome: CC1CCC2(C(=O)O)CCC3(C)C(=CCC4C5(C)CC(O)C(O)C(C)(CO)C5C(O)CC43C)C2C1C (centres undefined) no (0)

For this compound, state the assay outcome: "CC(C)(C)C1=CC(O)(c2c3ccccc3c(C3(O)C=C(C(C)(C)C)C(=O)C(C(C)(C)C)=C3)c3ccccc23)C=C(C(C)(C)C)C1=O" no (0)

For this compound, state the assay outcome: COc1ccc(C2C3=C(COC3=O)Oc3cc4c(cc32)OCO4)cc1OC (centres undefined) no (0)

###

# Test system: EKVX
# MEASUREMENT_PROTOCOL: NCI tumour cell line growth inhibition, 48 h
Where a name gives a salt, the structure may show the parent alone. The source made the active and inactive calls. Rule as the data show it: active = GI50 up to about 1.1 µM and inactive = higher.
OBSERVABLE: GI50

Guide cases for GI50, answers given:
1) CCOC(=O)c1cc(C)nc2c1c(=O)n(-c1ccccc1)c(=O)n2CCCCN1CCN(c2ncccn2)CC1 = > 100 µM (inactive)
2) C[C@]12CC[C@H](O)CC1=CC[C@@H]1[C@@H]2CC[C@]2(C)/C(=N/OCCN3CCCC3)CC[C@@H]12 = 10.8 µM (inactive)
3) Cc1csc(NNC(N)=O)n1 = > 100 µM (inactive)
4) CCc1ccc2c(c1)N(CC(C)CN(C)C)c1ccccc1S2 (stereo not given) [ETYMEMAZINE HYDROCHLORIDE] = 11.4 µM (inactive)

Would you mind telling me what GI50 value was observed for "COc1cc(C2C(C(=O)Nc3cc(F)c(F)cc3F)=C(C)NC(C)=C2C(=O)Nc2cc(F)c(F)cc2F)ccc1O" ? 14.9 µM (inactive)

Would you mind telling me what GI50 value was observed for "Cc1nnc2sc(N/N=C/c3ccccc3)nn12" ? > 100 µM (inactive)

Would you mind telling me what GI50 value was observed for COc1cc(C(C)c2cc3c(cc2OCCO)OCO3)cc(OC)c1OC (stereo not given) ? 3.79 µM (inactive)

Would you mind telling me what GI50 value was observed for "COc1ccc(/C=C2\N=C3N(Cc4ccccc4)C=C(N)N3C2=O)cc1" ? 59.4 µM (inactive)

Would you mind telling me what GI50 value was observed for "COc1cc(/C=C(\C#N)C(=O)c2ccccc2)cc(OC)c1OC" ? > 100 µM (inactive)

Would you mind telling me what GI50 value was observed for "Cc1cc(Cl)ccc1N1C(=O)C(=O)C(c2nc3ccccc3o2)C(=O)C1=O" ? > 100 µM (inactive)

###

# System: NCI-H460
# MEASUREMENT_PROTOCOL: NCI tumour cell line growth inhibition, 48 h
Calls of active or inactive are those of the source. Cut-off read from the data, not from the text of the source: active = GI50 up to about 1.1 µM and inactive = higher.
Choose one outcome from this list and give only that: active, inactive

Reference set (3 entries):
1) Cn1c(=O)c2c(no[n+]2[O-])c2ccccc21 = inactive
2) Cc1ccc(Cl)c(NC(=O)C(=O)C(C(=O)c2ccncc2)C2OC(=O)c3ccccc32)c1 (stereo unspecified) = inactive
3) COc1ccc2[nH]c3c(C)c4ccnc(NCCCN(C)CCCN)c4c(C)c3c2c1 = active

For this compound, state the assay outcome: CCN(CC)C1C(=O)NC1C#Cc1ccccc1 (stereo unspecified) inactive

For this compound, state the assay outcome: "CCOc1ccc2c(c1)c(=O)c1c(NCCN(CC)CC)ccc3nnn2c31" inactive

For this compound, state the assay outcome: "COc1ccc([I+]c2ccc(OC)cc2)cc1" inactive

Each recorded value in this set is attributed to ChEMBL document CHEMBL1201862.
